B1: Mineralocorticoid receptor, residues 600 to 675; numbered along this chain, P08235 (parent)
chain: SKICLVCGDEASGCHYGVVTCGSCKVFFKRAVEGQHNYLCAGRNDCIIDKIRRKNCPACRLQKCLQAGMNLGARKS

Variants of: B1
METHOD: abundance fitness (aPCA) (normalised: wild type 0, dead -1); higher = more abundant; growth selection in yeast, the domain comes from the species named
CONDITION_SET: Homo sapiens
EXPERIMENTAL_ENDPOINT: abundance fitness
# print the numeric value only

Here's what some known entries look like.
# VARIANT_NAME, EXPERIMENTAL_ENDPOINT, NUMBER
records = [
    ("G8Q", "abundance fitness", -0.095),
    ("A41F", "abundance fitness", -0.277),
    ("C59P", "abundance fitness", -0.615),
    ("H15V", "abundance fitness", -0.103),
]

Please examine the following record next.
For the variant "L65D" , what abundance fitness is on record? -0.051

Cited source for all entries: the Human Domainome abundance scans (Beltran et al. 2025)
